# target_desc: DN-IV quality control recombinant protein (produced by the company) (dengue virus)
# assay_method_text: BLI, antibody on AMC sensor
Each item that follows carries a reported koff.

binder | koff
WT 1-5 (antibody, V domains shown) VH: EVQLQQPGPELVKPGASVKMSCKASGYTVTSYVIHWVRQKPGQGLEWIGYMNAYNDGLKYNDKFIGKAILTSDKSSSTAYMQLSSLTSEDSAVYYCTKEGLFYVFDYWGQGTSVTVSS VL: QIVLTQSPAIMSASPGEKVTMTCSGTSSVSYMHWYQQKSGTSPKRWIYDSSKLASPVPVRFSGSGSGTSYSLTISSMEAEDAATYFCQWWRSVLPTFGAGTKLELKR | 0.000264 s⁻¹
Mutation 1-5 (antibody, V domains shown) VH: EVQLQQPGPELVKPGASVKMSCKASGYTFTSYVIHWVRQKPGQGLEWIGYMNPYNDGIKYNEKFIGKAILTSDKSSSTAYMQLSSLTSEDSAVYYCTREGLFYVFDYWGQGTSVTVSS VL: QIVLTQSPAIMSASPGEKVTMTCSATSSVSYMHWYQQKSGTSPKRWIYDSSKLASGVPVRFSGSGSGTSYSLTISSMEAEDAATYFCQQWRSDLPTFGAGTKLELKR | 0.000213 s⁻¹
Mutation 1-35 (antibody, V domains shown) VH: EVQLQQPGPELVKPGASVKMSCKASGYTFTSYVIHWVRQKPGQGLEWIGYMNPYNDGLKYNEKFIGKAILTSDKSSSTAYMQLSSLTSEDSAVYYCTKEGLFYVMDYWGQGTSVTVSS VL: QIVLTQSPAIMSASPGEKVTMTCSATSSVSYMHWYQQKSGTSPKRWIYDSSKLASGVPVRFSGSGSGTSYSLTISSMEAEDAATYFCQWWRSDLPTFGAGTKLELKR | 0.000252 s⁻¹
